molecular target: murine IL-21R expressed on cells (murine, UniProt Q9JHX3 20-529); test: cell-based or functional assay
Sequence (Q9JHX3 20-529 limits assumed): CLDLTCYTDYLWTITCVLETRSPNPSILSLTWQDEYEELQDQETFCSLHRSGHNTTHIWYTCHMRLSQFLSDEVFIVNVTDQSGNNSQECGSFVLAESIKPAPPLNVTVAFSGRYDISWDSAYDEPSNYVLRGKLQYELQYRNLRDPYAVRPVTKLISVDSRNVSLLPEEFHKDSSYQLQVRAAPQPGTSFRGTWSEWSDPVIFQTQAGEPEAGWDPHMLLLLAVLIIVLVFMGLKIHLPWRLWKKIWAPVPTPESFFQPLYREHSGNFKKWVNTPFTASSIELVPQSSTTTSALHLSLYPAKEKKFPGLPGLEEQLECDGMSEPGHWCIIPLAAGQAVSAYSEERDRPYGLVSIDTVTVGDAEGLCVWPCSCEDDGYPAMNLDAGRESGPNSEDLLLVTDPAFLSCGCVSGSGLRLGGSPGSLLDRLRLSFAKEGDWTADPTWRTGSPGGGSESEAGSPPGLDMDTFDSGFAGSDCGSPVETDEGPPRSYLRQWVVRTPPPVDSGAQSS
Entries and their measured IC50, Murine IL-21R-BaF3 Neutralization Assay follow.

Record excerpt, results attached:
scFv L11 (scFv) scFv: QVQLQESGPGLVKTSETLSLTCAVSGYSISSGYYWGWIRQPPGKGLEWIGSISHTGNTYYNPPLKSRVTISVDTSKNQFSLKLSSVTAADTAVYYCARGGGISRPEYWGKGTLVTVSSGGGGSGGGGSGGGGSALSSELTQDPPVSVALGQTVTLTCQGDSLRTYYASWYQQKSGQAPILLLYGKHKRPSGIPDRFSGSTSGDTASLTITGAQAEDEADYYCSSRSRHGNPHVLFGGGTQLTVL
10 nM
scFv L20 (scFv) scFv: QVQLQESGPGLVKTSETLSLTCAVSGYSISSGYYWGWIRQPPGKGLEWIGSISHTGNTYYNPPLKSRVTISVDTSKNQFSLKLSSVTAADTAVYYCARGGGISRPEYWGKGTLVTVSSGGGGSGGGGSGGGGSALSSELTQDPPVSVALGQTVTLTCQGDSLRTYYASWYQQKSGQAPILLLYGKHKRPSGIPDRFSGSTSGDTASLTITGAQAEDEADYYCVSRSAKGNPHVLFGGGTQLTVL
15.4 nM

Now consider a different binder.
Given item scFv L9 (scFv) scFv: QVQLQESGPGLVKTSETLSLTCAVSGYSISSGYYWGWIRQPPGKGLEWIGSISHTGNTYYNPPLKSRVTISVDTSKNQFSLKLSSVTAADTAVYYCARGGGISRPEYWGKGTLVTVSSGGGGSGGGGSGGGGSALSSELTQDPPVSVALGQTVTLTCQGDSLRTYYASWYQQKSGQAPILLLYGKHKRPSGIPDRFSGSTSGDTASLTITGAQAEDEADYYCVARSNKGNPHVLFGGGTQLTVL , the value recorded as its IC50, Murine IL-21R-BaF3 Neutralization Assay is 3.61 nM
